ASSAY_METHOD_TEXT: Oral bioavailability in BALB/c mouse at 3 mg/kg
Format: ADME, organism-based
PROTOCOL_CONDITIONS: in vivo
READOUT_TYPE: bioavailability (%)
Quick note: give the figure in %, leave out the unit.

Q. Would you mind telling me what bioavailability value was observed for NC(=O)c1cnc(Nc2ccc(N3CCOCC3)cc2)nc1NCc1ccccc1 ?
A. 30

---

ASSAY_METHOD_TEXT: Volume of distribution in BALB/c mouse at 1 mg/kg, iv
Type: ADME, organism-based
Set-up: dose 1 mg/kg, route intravenous
PROTOCOL_CONDITIONS: in vivo
READOUT_TYPE: Vd (L/kg)
Quick note: give the figure in L/kg, leave out the unit.

| ENTRY_SMILES | UNIT_TAG | Vd |
| --- | --- | --- |
| NC(=O)c1cnc(Nc2ccc(N3CCOCC3)cc2)nc1NCc1ccccc1 | L/kg | 3.91 |

Q. Would you mind telling me what Vd value was observed for NC(=O)c1cnc(NCCc2cc(Cl)c(O)c(Cl)c2)nc1NCc1ccccc1 ?
A. 0.931

Source of measurements: ChEMBL document CHEMBL1157473
